Reference for the values: the Immune Epitope Database (IEDB)

target: HLA-A*02:03; assay: IEDB peptide-MHC binding, purified MHC/direct/fluorescence; filed as Kd, often an IC50 or EC50 that approximates it; bounds were set here for any values at or beyond the usual limits of such assays; conditions: source organism: Mycobacterium tuberculosis str. Haarlem
parameter: Kd (nM)
Numbers only; they are read as nM.

Ask: Item under review: `ALLENIHRV` . Reported Kd?
Reply: 2

* * *

molecular target: HLA-A*69:01; assay: IEDB peptide-MHC binding, purified MHC/direct/fluorescence; filed as Kd, often an IC50 or EC50 that approximates it; bounds were set here for any values at or beyond the usual limits of such assays; conditions: source organism: Coxiella burnetii
Here the recorded Kd is given for each entry.

Illustrative cases are given below, each with its answer.
>>> result("EIYRTLYGL")
"1.4 nM"
>>> result("YTYPIAHTA")
"2.5 nM"

Ask: Which Kd reading was recorded for the sequence `AISRLRTQK` ?
Reply: ≥ 20000 nM
